The entries that follow carry pIC50 values tested on GST-Xa-hAAK1 (Homo sapiens (Human)), drawn from several published reports.
Sequence (Q2M2I8 whole entry): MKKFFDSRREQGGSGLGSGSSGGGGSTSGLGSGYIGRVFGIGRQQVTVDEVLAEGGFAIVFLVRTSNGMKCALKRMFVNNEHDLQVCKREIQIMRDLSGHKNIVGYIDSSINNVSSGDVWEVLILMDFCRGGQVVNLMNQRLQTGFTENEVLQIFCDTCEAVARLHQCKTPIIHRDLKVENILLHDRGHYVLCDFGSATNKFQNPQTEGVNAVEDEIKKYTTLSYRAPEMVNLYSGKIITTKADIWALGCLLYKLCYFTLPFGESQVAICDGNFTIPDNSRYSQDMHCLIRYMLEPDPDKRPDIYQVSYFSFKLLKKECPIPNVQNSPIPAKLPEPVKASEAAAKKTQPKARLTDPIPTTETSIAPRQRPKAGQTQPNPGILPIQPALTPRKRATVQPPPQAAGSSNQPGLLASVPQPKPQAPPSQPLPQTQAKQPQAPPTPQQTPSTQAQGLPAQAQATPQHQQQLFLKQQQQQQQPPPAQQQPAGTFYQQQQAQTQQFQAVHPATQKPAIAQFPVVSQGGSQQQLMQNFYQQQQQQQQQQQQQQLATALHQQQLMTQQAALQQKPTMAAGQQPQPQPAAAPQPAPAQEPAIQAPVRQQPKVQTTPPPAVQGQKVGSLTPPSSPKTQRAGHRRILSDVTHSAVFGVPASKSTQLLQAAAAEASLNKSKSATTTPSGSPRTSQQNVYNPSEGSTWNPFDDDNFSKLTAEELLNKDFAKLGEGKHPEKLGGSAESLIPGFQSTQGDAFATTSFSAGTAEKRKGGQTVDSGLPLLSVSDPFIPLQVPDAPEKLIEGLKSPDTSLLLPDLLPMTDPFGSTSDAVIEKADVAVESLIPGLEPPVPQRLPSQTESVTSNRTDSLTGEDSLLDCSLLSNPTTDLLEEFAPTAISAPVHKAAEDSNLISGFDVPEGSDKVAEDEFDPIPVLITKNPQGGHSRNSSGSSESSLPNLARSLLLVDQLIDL
API: returns pIC50 as number; meaning -log10 of concentration in mol/L.

Below, each entry is followed by its recorded pIC50 result.
In [3]: df
Out[3]:
                                   compound  meas_value
0  Cc1cc(-c2cc(C(F)F)c(OC[C@@](C)(O)CC(C)C)cn2)ccn1        6.82
1  COC(=O)Nc1cc(-c2ccc(OC[C@@](N)(CF)CC(C)C)c(C(F)F)n2)ccn1        7.62
2  Cc1cc2c(cc1OC[C@@](C)(N)CC(C)C)c(=O)n(C)c1c(C)nccc21        8.27
3  Cc1nc(-c2ccnc3ccc(F)cc23)ccc1OC[C@@](C)(N)CC(C)C        7.46
4  CC(C)C[C@](C)(N)COc1ccc(-c2ccnc3ccccc23)cc1S(C)(=O)=O        7.89
5  CC(C)C[C@](C)(N)COc1ccc(-c2cc(F)ncc2Cl)cc1C(F)(F)F        8.06
6  CC(C)C[C@](C)(N)COc1cc(F)c(-c2ccnc(C(F)F)c2)cc1F        7.72

Let's switch to this compound now.
Exercise: Consider the compound CC(C)CC(C)(N)COc1ccc2c(c1)c(=O)n(C)c1cnccc21 (centres unmarked) tested on GST-Xa-hAAK1 (Homo sapiens (Human)); state its pIC50.
Solution: 7.51

---

Assembled from different publications: IC50 for GST-Xa-hAAK1 (Homo sapiens (Human)).
Hi! Just check whether IC50 is below 2 nM. Below gives yes, equal or above gives no.

Here's what some known entries look like.
>>> df
                        structure_as_smiles  assigned_category
0  CC(=O)Nc1cc(-c2ccc(OC[C@@](C)(N)CC(C)C)c(C(F)(F)F)c2)c(CO)cn1                 no
1  COC(=O)Nc1nccc(-c2ccc(OC[C@@](C)(N)CC(C)C)c(C)n2)n1                 no
2  COC(=O)Nc1cc(-c2cnc(OC[C@@](C)(N)CC(C)C)c(C)c2)ncn1                 no
3  COC(=O)Nc1cc(-c2ccc(OC[C@@](C)(N)CC(C)C)c(C)c2)ncn1                yes
4  CNc1cc(N[C@H]2CC[C@H](N)CC2)nn2c(C(=O)Nc3cccc(-c4noc(C(C)C)n4)c3)cnc12                 no
5  Cc1cc(-c2ccnc3ccccc23)ncc1OC[C@@](C)(N)CC(C)C                yes

Exercise: Item CCOC(=O)Nc1nccc(-c2ccc(OC[C@@](C)(N)CC(C)C)c(C(F)(F)F)c2)n1 : IC50 beneath 2 nM, strictly?
Solution: yes

---

Compiled record: pIC50 values for GST-Xa-hAAK1 (Homo sapiens (Human), UniProt Q2M2I8) across several sources.
Would you please state pIC50, meaning minus log10 of the concentration in mol/L, as a bare number?

As a guide, the following entries are already answered.
>>> df
                                   molecule                             target_system  assay_readout  meas_value
0  CC(C)C[C@](C)(N)COc1ccc(-c2ccnc(Cl)n2)cc1C(F)(F)F  GST-Xa-hAAK1 (Homo sapiens (Human), UniProt Q2M2I8)          pIC50        8.85
1  COc1nccc(-c2ccc(OC[C@@](C)(N)CC(C)C)c(C(F)(F)F)c2)n1  GST-Xa-hAAK1 (Homo sapiens (Human), UniProt Q2M2I8)          pIC50        8.09
2  Cc1nccc(-c2cc(F)c(OC[C@@](C)(N)CC(C)C)cc2F)n1  GST-Xa-hAAK1 (Homo sapiens (Human), UniProt Q2M2I8)          pIC50        6.87
3  CC(C)C[C@](C)(N)COc1ncc(-c2ccnc3ccccc23)cc1C(F)F  GST-Xa-hAAK1 (Homo sapiens (Human), UniProt Q2M2I8)          pIC50        9.64
4  Cc1cc(-c2cc(C(F)(F)F)c(OCC(C)(N)CC(C)C)cn2)ccn1 (stereo in doubt)  GST-Xa-hAAK1 (Homo sapiens (Human), UniProt Q2M2I8)          pIC50        6.60
5  CC(C)CC(C)(N)COc1ccc2c(c1)c(=O)[nH]c1cnccc12 (centres unmarked)  GST-Xa-hAAK1 (Homo sapiens (Human), UniProt Q2M2I8)          pIC50        8.59
6  CC(C)C[C@H](N)COc1ccc2c(c1)COc1cnc(N)cc1-2  GST-Xa-hAAK1 (Homo sapiens (Human), UniProt Q2M2I8)          pIC50        7.96
7  CC(C)C[C@](C)(N)COc1cnc(-c2ccnc3cc(F)cc(F)c23)cc1C(F)F  GST-Xa-hAAK1 (Homo sapiens (Human), UniProt Q2M2I8)          pIC50        8.85

Exercise: Tell me measured pIC50 for CC(C)C[C@H](N)COc1ccc2c(c1)COc1cnccc1-2 please.
Solution: 7.89

Exercise: Identify the reported pIC50 for the following entry. COC(=O)Nc1cc(-c2cc(C(F)F)c(OC[C@@](C)(N)CC(C)C)cn2)ccn1
Solution: 9.29

Exercise: Identify measured pIC50 associated with COC(=O)Nc1cc(-c2cnc(OC[C@@](C)(N)CC(C)C)c(Cl)c2)ncn1
Solution: 8.66

Exercise: Input Cc1nccc(-c2ccc(OC[C@@](C)(N)CC(C)C)c(C)c2)n1 , output reported pIC50.
Solution: 8.62

Exercise: State, in one line, measured pIC50 of COc1cc(-c2ccnc(NC(C)=O)c2)ccc1OC[C@@H](N)CC(C)C
Solution: 8.52

Exercise: Answer with reported pIC50 of COc1ccc(Nc2cc(N[C@H]3CC[C@H](N)CC3)nn3c(-c4ccsc4)cnc23)cc1
Solution: 8.05

---

IC50 for GST-Xa-hAAK1 (Homo sapiens (Human), UniProt Q2M2I8) - collated from the literature.
API: value field is a number in nM; no unit string.

Below, each entry is followed by its recorded IC50 result.
In [3]: df
Out[3]:
                        structure_as_smiles  display_unit  meas_value
0  CC(C)C[C@H](N)COc1ccc2c(c1)C(C)(C)Oc1cnccc1-2            nM         235
1  COC(=O)Nc1cc(-c2ccc(OC[C@@](C)(N)CC(C)C)c(C3CC3)c2)ccn1            nM        0.32
2  CC(C)C[C@](C)(N)COc1ccc(-c2ccnc(CF)c2)nc1CF            nM         4.8

Now take the following molecule into account.
Exercise: State, in one line, measured IC50 of Cc1nccc2c3cc(C#N)c(OC[C@@](C)(N)CC(C)C)cc3c(=O)n(C3CC3)c12
Solution: 69

---

Consider the following log10 of IC50 data for GST-Xa-hAAK1 (Homo sapiens (Human), UniProt Q2M2I8), collected from several reports.
Log10 applied to IC50; unit prior to transform: nM.

>>> df
                        structure_as_smiles  meas_value
0  Cc1nccc(-c2ccc(OC[C@@](C)(N)CC(C)C)c(F)c2F)n1        0.71
1  Cc1nc(-c2ccnc(Cl)n2)ccc1OC[C@@](C)(N)CC(C)C        0.43
2  COC(=O)Nc1cc(-c2ccc(OC[C@@](C)(N)CC(C)C)c(OC(F)(F)F)c2)ccn1       -0.16

Exercise: Answer with reported log10 of IC50 of Cc1cc(-c2ccnc(C(F)F)c2)ncc1OC[C@@](C)(N)CC(C)C
Solution: 0.20

Exercise: For the compound CC(=O)Nc1cc2c(cn1)OCc1cc(OC[C@@](C)(N)CC(C)C)ccc1-2 , report log10 of IC50.
Solution: 0.38

Exercise: Give a short answer stating reported log10 of IC50 for CNc1cc(N[C@H]2CC[C@H](N)CC2)nn2c(-c3ccsc3)cnc12 .
Solution: 1.58

Exercise: Give log10 of IC50 for Cc1nccc(-c2ccc(OC[C@@](C)(N)CC(C)C)c(C(F)F)n2)c1F
Solution: -0.10

Exercise: Look up and state reported log10 of IC50 for Cc1cc2c(cc1OC[C@@H](N)CC(C)C)COc1cnccc1-2
Solution: 0.51

Exercise: State its log10 of IC50: COC(=O)Nc1cc(-c2ccc(OC[C@@](C)(N)CC(C)C)c(C#N)c2)cnn1
Solution: 2.39

---

Listing of log10(IC50) toward GST-Xa-hAAK1 (Homo sapiens (Human)), each taken from a published source.
Scale: log10; quantity: IC50; unit before log: nM

Solved entries:
                        structure_as_smiles  meas_value
0  COC(=O)Nc1nccc2c1OCc1cc(OC[C@@](C)(N)CC(C)C)ccc1-2        0.89
1  CC(=O)Nc1cc(-c2ccc(OC[C@@](C)(N)CC(C)C)c(C(F)F)c2)ccn1       -0.12
2  CC(C)C[C@](C)(N)COc1ncc(-c2ccnc3cc(Cl)ccc23)cc1C(F)F       -0.51
3  Cc1nccc2c3ccc(OC[C@@](C)(N)CC(C)C)cc3c(=O)n(CCO)c12        3.05
4  Cc1cc(-c2ccnc(F)c2)cnc1OC[C@@](C)(N)CC(C)C        1.59

Exercise: Enter log10(IC50) (test system GST-Xa-hAAK1 (Homo sapiens (Human))) for COC(=O)Nc1cc(-c2ccc(OC[C@@H](N)CC(C)C)c(F)c2)ccn1
Solution: 0.04

Exercise: State log10(IC50) (GST-Xa-hAAK1 (Homo sapiens (Human))) of COC(=O)Nc1cc(-c2ccc(OC[C@@](C)(N)CC(C)C)c(C#N)c2)ccn1 .
Solution: -0.19

Exercise: Write log10(IC50) of CC(C)C[C@](C)(N)COc1ncc(-c2ccnc3ccccc23)cc1F ; system used: GST-Xa-hAAK1 (Homo sapiens (Human))
Solution: 1.00

Exercise: Would you please give the reported log10(IC50) of CC(C)C[C@](C)(N)COc1ccc(-c2ccnc(C(C)C)n2)cc1Cl with GST-Xa-hAAK1 (Homo sapiens (Human))?
Solution: 1.26
